Tested on: HeLa
Assay: Cytotoxicity against human HeLa cells assessed as reduction in cell viability after 48 hrs by MTT assay
Assay type: functional, cell-based
readoutLabel: pIC50
Please report pIC50 as the negative decimal logarithm of the molar concentration, giving only the number.

Ask | Fill in the blank: the reported pIC50 of `C=C1OC(=O)C=C1Cc1ccc(NC(=O)Cc2ccc(C(F)(F)F)cc2)cc1` is ____.
Reply | 4.40

Ask | Need pIC50 of `C=C1OC(=O)C=C1Cc1ccc(NC(=O)Cc2cccc(C(F)(F)F)c2)cc1` , thanks.
Reply | 5.06

Ask | I would be grateful if you could share the reported pIC50 for `C=C1OC(=O)C=C1Cc1ccc(NC(=O)Cc2ccc(F)cc2)cc1` .
Reply | 4.79

Ask | For `C=C1OC(=O)C=C1Cc1ccc(NC(=O)Cc2ccccc2F)cc1` , what is its reported pIC50?
Reply | 4.39

Ask | I have this molecule here, `O=C(/C=C/c1ccccc1F)Nc1ccc(CC2=CC(=O)OC2)cc1` , and I need its recorded pIC50.
Reply | 4.34

Ask | GET /values?readout=pIC50&item= `O=C(Cc1ccc(C(F)(F)F)cc1)Nc1ccc(CC2=CC(=O)OC2)cc1`
Reply | 4.31

Ask | What pIC50 value was documented for this molecule, `C=C1OC(=O)C=C1Cc1ccc(NC(=O)Cc2ccccc2Cl)cc1` ?
Reply | 4.37

Ask | Name the reported pIC50 value associated with the molecule `C=C1OC(=O)C=C1Cc1ccc(NC(=O)/C=C/c2ccc(F)cc2)cc1`
Reply | 5.56

Ask | Using the record for `C=C1OC(=O)C=C1Cc1ccc(NC(=O)/C=C/c2ccccc2F)cc1` , report its pIC50.
Reply | 5.16

* * *

Field: pIC50. Provide a value for each of the compounds that follow.
System: HeLa
Assay: Cytotoxicity against human HeLa cells assessed as reduction in cell viability after 48 hrs by MTT assay
Assay type: functional, cell-based
Expect pIC50 as a plain number equal to -log10 of the molar concentration.

Ask | Form: Entry = `O=C(Cc1cccc(C(F)(F)F)c1)Nc1ccc(CC2=CC(=O)OC2)cc1` | System = HeLa | pIC50 = ____
Reply | 4.36

Ask | So what pIC50 did `O=C(/C=C/c1cccc(F)c1)Nc1ccc(CC2=CC(=O)OC2)cc1` get with HeLa?
Reply | 4.31

Ask | Hello, I am looking for reported pIC50 with HeLa for CC[C@@]1(O)C(=O)OCc2c1cc1n(c2=O)Cc2cc3ccccc3nc2-1 [CAMPTOTHECIN] . Could you help?
Reply | 4.22

Ask | Field: pIC50 (HeLa). Entry: `C=C1OC(=O)C=C1Cc1ccc(NC(=O)Cc2ccc(C)cc2)cc1`
Reply | 5.15

* * *

What inhibition was measured for each of the following?
Molecular target: DNA topoisomerase 1 (Homo sapiens) (UniProt P11387)
Sequence (whole entry): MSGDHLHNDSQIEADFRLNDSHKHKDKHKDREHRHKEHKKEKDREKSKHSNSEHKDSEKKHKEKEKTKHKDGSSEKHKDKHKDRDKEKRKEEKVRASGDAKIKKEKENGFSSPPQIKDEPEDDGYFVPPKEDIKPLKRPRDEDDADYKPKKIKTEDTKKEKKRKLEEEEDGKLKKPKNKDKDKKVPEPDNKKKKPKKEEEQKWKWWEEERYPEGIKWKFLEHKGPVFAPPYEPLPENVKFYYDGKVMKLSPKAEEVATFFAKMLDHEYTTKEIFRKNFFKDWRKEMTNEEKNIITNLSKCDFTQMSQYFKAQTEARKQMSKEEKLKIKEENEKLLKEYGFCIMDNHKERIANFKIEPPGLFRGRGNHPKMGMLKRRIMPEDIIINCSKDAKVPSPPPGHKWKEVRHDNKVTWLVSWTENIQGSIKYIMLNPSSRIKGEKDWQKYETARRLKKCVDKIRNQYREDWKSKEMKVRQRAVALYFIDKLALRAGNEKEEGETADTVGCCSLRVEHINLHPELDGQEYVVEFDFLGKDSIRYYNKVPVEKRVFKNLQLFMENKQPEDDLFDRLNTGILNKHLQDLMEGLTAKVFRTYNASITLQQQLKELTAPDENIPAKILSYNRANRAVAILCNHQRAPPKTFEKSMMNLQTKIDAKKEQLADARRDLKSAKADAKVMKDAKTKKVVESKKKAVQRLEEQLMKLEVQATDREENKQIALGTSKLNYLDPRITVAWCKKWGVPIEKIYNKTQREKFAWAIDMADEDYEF
Assay: Inhibition of recombinant human topoisomerase-1 assessed as reduction in relaxation of supercoiled pBR322 DNA substrate at 100 uM after 30 mins by ethidium bromide staining based agarose gel electrophoresis relative to control
Give just the numeric value; % need not be written.

Ask | // returns reported inhibition for input `O=C(Cc1ccc(C(F)(F)F)cc1)Nc1ccc(CC2=CC(=O)OC2)cc1`
Reply | 11

Ask | If you can, please state the reported inhibition value of `C=C1OC(=O)C=C1Cc1ccc(NC(=O)Cc2cccc(Cl)c2)cc1` .
Reply | 22.5

Ask | What value of measured inhibition is listed for `C=C1OC(=O)C=C1Cc1ccc(NC(=O)/C=C/c2ccc(F)cc2)cc1` ?
Reply | 94

Ask | Which inhibition value belongs to `C=C1OC(=O)C=C1Cc1ccc(NC(=O)Cc2ccc(C)cc2)cc1` ?
Reply | 47.9

Ask | Please report the recorded inhibition for `O=C(/C=C/c1cccc(F)c1)Nc1ccc(CC2=CC(=O)OC2)cc1` .
Reply | 13.1

Ask | May I ask what inhibition has been recorded for `C=C1OC(=O)C=C1Cc1ccc(NC(=O)Cc2ccc(F)cc2)cc1` ?
Reply | 43.3

Ask | Would you mind telling me what inhibition value was observed for `O=C(Cc1cccc(C(F)(F)F)c1)Nc1ccc(CC2=CC(=O)OC2)cc1` ?
Reply | 12.3
